- system: Prostaglandin D2 receptor (Homo sapiens)
- Sequence (Q13258 whole entry): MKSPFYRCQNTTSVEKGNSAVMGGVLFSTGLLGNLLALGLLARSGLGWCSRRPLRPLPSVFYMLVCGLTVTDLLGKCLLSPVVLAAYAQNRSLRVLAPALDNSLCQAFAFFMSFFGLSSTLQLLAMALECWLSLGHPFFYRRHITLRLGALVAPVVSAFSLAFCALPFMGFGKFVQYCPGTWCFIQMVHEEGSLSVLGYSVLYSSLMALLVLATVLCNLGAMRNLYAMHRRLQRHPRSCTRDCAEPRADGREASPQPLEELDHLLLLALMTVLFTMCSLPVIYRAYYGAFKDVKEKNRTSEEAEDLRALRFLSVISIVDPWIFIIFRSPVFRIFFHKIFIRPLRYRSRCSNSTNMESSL
- protocol-details: Agonist activity at human recombinant DP1 receptor expressed in melanophores assessed as induction of pigment redistribution incubated for 90 mins
pEC50: −log10 of the molar value.
readout-type: pEC50

1. O=C(O)COc1cccc2c1CCC(Cn1ncc(-c3cccc(F)c3)c(-c3ccccc3)c1=O)C2 (racemic)
2. COc1cccc(-c2cc(=O)n(CC3CCc4c(cccc4OCC(=O)O)C3)nc2-c2ccccc2)c1 (racemic)
3. O=C(O)COc1cccc2c1CCC(Cn1ncc(-c3cccc(F)c3F)c(-c3ccccc3)c1=O)C2 (racemic)
4. COc1cccc(-c2cc(=O)n(CC3CCc4c(cccc4OCC(=O)O)C3)nc2-c2ccccc2)c1F (racemic)
Q. Rank order required: pEC50, descending. Reply format: the labels, ordered as requested.
A. 4, 2, 3, 1

1. O=C(O)COc1cccc2c1CCC(Cn1nc(-c3ccccc3)c(-c3ccccc3)cc1=O)C2 (racemic)
2. O=C(O)COc1cccc2c1CCC(Cn1ncc(-c3cccc(F)c3F)c(-c3ccc(F)cc3)c1=O)C2 (racemic)
Q. Lab note: check whether 1 or 2 has the lower measured pEC50. Give the label under which the chosen entry appears.
A. 2
